system: 485176-168-R4-J1-PDC spheroids with HUVEC/MSC, viability; assay: Anticancer human tumor 485176-168-R4-J1-PDC patient-derived pancreatic adenocarcinoma cell line growth inhibition [GQUAD]; conditions: second compound 0.316 µM; first compound 1 µM; active = viability on the fitted dose curve at most 10% of control; inactive = the rest
Outcomes: active, inactive

COMPOUND	LABEL_VALUE
Cc1cccc(N(C)C(=O)C2C(O)CCN2c2nc(C)cc(C(F)(F)F)c2C#N)c1 (stereo unspecified) + CN(C)c1ccc(Nc2c3ccc(NC(=O)CCN4CCCC4)cc3nc3cc(NC(=O)CCN4CCCC4)ccc23)cc1	inactive
CCCS(=O)(=O)Nc1ccc(F)c(C(=O)c2c[nH]c3ncc(-c4ccc(Cl)cc4)cc23)c1F + Cc1[nH]c2ccc(F)cc2c1-c1nc2c3cccnc3c3ncccc3c2[nH]1	inactive
O=c1[nH]cc(F)c(=O)[nH]1 + CN(C)c1ccc(Nc2c3ccc(NC(=O)CCN4CCCC4)cc3nc3cc(NC(=O)CCN4CCCC4)ccc23)cc1	inactive
CC1COCCN1c1cc(C2(S(C)(=N)=O)CC2)nc(-c2ccnc3[nH]ccc23)n1 (stereo unspecified) + CN(C)c1ccc(Nc2c3ccc(NC(=O)CCN4CCCC4)cc3nc3cc(NC(=O)CCN4CCCC4)ccc23)cc1	inactive
Cc1cccc(N(C)C(=O)C2C(O)CCN2c2nc(C)cc(C(F)(F)F)c2C#N)c1 (stereo unspecified) + Cc1[nH]c2ccc(F)cc2c1-c1nc2c3cccnc3c3ncccc3c2[nH]1	inactive
C#Cc1c(F)ccc2cc(O)cc(-c3ncc4c(N5CC6CCC(C5)N6)nc(OCC56CCCN5CC(F)C6)nc4c3F)c12 (stereo unspecified) + Cc1cnc(CNC(=O)c2c(=O)c3ccc(N4CCCN(C)CC4)nc3n3c2sc2ccccc23)cn1	inactive
CC1COCCN1c1cc(C2(O)CC3CCC(C2)O3)c2cnn(-c3ccn[nH]3)c2n1 (stereo unspecified) + Cc1[nH]c2ccc(F)cc2c1-c1nc2c3cccnc3c3ncccc3c2[nH]1	active
COc1cccc2c1C(=O)c1c(O)c3c(c(O)c1C2=O)CC(O)(C(=O)CO)CC3OC1CC(N)C(O)C(C)O1 (stereo unspecified) + CN(C)c1ccc(Nc2c3ccc(NC(=O)CCN4CCCC4)cc3nc3cc(NC(=O)CCN4CCCC4)ccc23)cc1	inactive
COc1cc(C2c3cc4c(cc3C(OC3OC5COC(C)OC5C(O)C3O)C3COC(=O)C23)OCO4)cc(OC)c1O (stereo unspecified) + Cc1cnc(CNC(=O)c2c(=O)c3ccc(N4CCCN(C)CC4)nc3n3c2sc2ccccc23)cn1	inactive
C=CCn1c(=O)c2cnc(Nc3ccc(N4CCN(C)CC4)cc3)nc2n1-c1cccc(C(C)(C)O)n1 + Cc1[nH]c2ccc(F)cc2c1-c1nc2c3cccnc3c3ncccc3c2[nH]1	inactive
O=C(NO)c1cnc(N2CCN(S(=O)(=O)c3ccc4ccccc4c3)CC2)nc1 + CN(C)c1ccc(Nc2c3ccc(NC(=O)CCN4CCCC4)cc3nc3cc(NC(=O)CCN4CCCC4)ccc23)cc1	inactive

---

system: 485176-168-R4-J1-PDC spheroids with HUVEC/MSC, viability; experiment: Anticancer human tumor 485176-168-R4-J1-PDC cell line growth inhibition [GQUAD]; details: second compound 10 µM; first compound 3.16 µM; active means viability on the fitted dose curve at most 10% of control; inactive means the rest;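 also: spheroids exposed to compounds for seven days before readout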
Outcomes: active, inactive

COMPOUND	LABEL_VALUE
CC1COCCN1c1cc(C2(S(C)(=N)=O)CC2)nc(-c2ccnc3[nH]ccc23)n1 (stereo not given) + CN(C)c1ccc(Nc2c3ccc(NC(=O)CCN4CCCC4)cc3nc3cc(NC(=O)CCN4CCCC4)ccc23)cc1	inactive
COc1ncnc(C2CC2)c1-c1ncc2cnn(Cc3ccc(-c4nc(C(F)(F)F)cn4C(C)C)cc3)c2n1 + Cc1cnc(CNC(=O)c2c(=O)c3ccc(N4CCCN(C)CC4)nc3n3c2sc2ccccc23)cn1	inactive
CC(=O)O[C@H]1C(=O)[C@@]2(C)[C@H]([C@H](OC(=O)c3ccccc3)[C@]3(O)C[C@H](OC(=O)[C@H](O)[C@@H](NC(=O)c4ccccc4)c4ccccc4)C(C)=C1C3(C)C)[C@]1(OC(C)=O)CO[C@@H]1C[C@@H]2O + Cc1cnc(CNC(=O)c2c(=O)c3ccc(N4CCCN(C)CC4)nc3n3c2sc2ccccc23)cn1	inactive
C=CC(=O)N1CCN(c2nc(=O)n(-c3c(C)ccnc3C(C)C)c3nc(-c4c(O)cccc4F)c(F)cc23)C(C)C1 (stereo not given) + CN(C)c1ccc(Nc2c3ccc(NC(=O)CCN4CCCC4)cc3nc3cc(NC(=O)CCN4CCCC4)ccc23)cc1	inactive
O=c1[nH]cc(F)c(=O)[nH]1 + CN(C)c1ccc(Nc2c3ccc(NC(=O)CCN4CCCC4)cc3nc3cc(NC(=O)CCN4CCCC4)ccc23)cc1	inactive
C=CC(=O)N1CCN(c2nc(=O)n(-c3c(C)ccnc3C(C)C)c3nc(-c4c(O)cccc4F)c(F)cc23)C(C)C1 (stereo not given) + Cc1cnc(CNC(=O)c2c(=O)c3ccc(N4CCCN(C)CC4)nc3n3c2sc2ccccc23)cn1	inactive
O=C(NO)c1cnc(N2CCN(S(=O)(=O)c3ccc4ccccc4c3)CC2)nc1 + Cc1cnc(CNC(=O)c2c(=O)c3ccc(N4CCCN(C)CC4)nc3n3c2sc2ccccc23)cn1	active
COc1cccc2c1C(=O)c1c(O)c3c(c(O)c1C2=O)CC(O)(C(=O)CO)CC3OC1CC(N)C(O)C(C)O1 (stereo not given) + CN(C)c1ccc(Nc2c3ccc(NC(=O)CCN4CCCC4)cc3nc3cc(NC(=O)CCN4CCCC4)ccc23)cc1	active
CCCS(=O)(=O)Nc1ccc(F)c(C(=O)c2c[nH]c3ncc(-c4ccc(Cl)cc4)cc23)c1F + Cc1[nH]c2ccc(F)cc2c1-c1nc2c3cccnc3c3ncccc3c2[nH]1	inactive
Cc1cccc(N(C)C(=O)C2C(O)CCN2c2nc(C)cc(C(F)(F)F)c2C#N)c1 (stereo not given) + CN(C)c1ccc(Nc2c3ccc(NC(=O)CCN4CCCC4)cc3nc3cc(NC(=O)CCN4CCCC4)ccc23)cc1	inactive
